All figures here come from PubChem BioAssay.

Test: serotonin-gated TRPC4 signal block – cell-based, second counter screen, HEK293 TRPC4/5HT1a, Fluo-4, counter-screen for TRPC4 inhibitor project, confirmation (AID 434978)
Details: Fluo-4 calcium flux, at 10 µM, serotonin added to trigger calcium flux; active compounds read high
The source made the active and inactive calls.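 How the source made its calls: active means primary screen active whose calcium signal fell more than 3 SD beyond the full-serotonin control mean in both duplicate plates; inactive means the rest.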
TEST_READOUT: inhibition

{"columns": ["MOLECULE", "REPORTED_RESULT"],
 "data": [
  ["COc1cccc(NC(=O)COc2c(F)c(F)c(C(F)(F)F)c(F)c2F)c1", "inactive"],
  ["COc1ccc(OC)c(Nc2c3c(nc4ccccc24)CCC3)c1", "30.5% (active)"],
  ["CN(CC1CCCN(CCc2cccc(C(F)(F)F)c2)C1)C(=O)c1cc2ccccc2o1 (centres undefined)", "1.18% (active)"],
  ["CCCn1c(NC(=O)c2ccc(Cl)c(S(=O)(=O)N3CCCC3)c2)nc2ccccc21", "inactive"],
  ["Cc1ccc(C)c(S(=O)(=O)/N=C2\\C=C(NS(=O)(=O)c3ccccc3)C(=O)c3ccccc32)c1", "inactive"],
  ["O=C(CN1CCCC1)N1c2ccccc2Sc2ccc(C(F)(F)F)cc21", "inactive"],
  ["CCOc1nc(C)cc(C)c1S(=O)(=O)c1cccc(C)c1", "inactive"],
  ["COc1cccc(C(=O)C2CCCN(Cc3cccn3-c3ccccn3)C2)c1 (centres undefined)", "35.6% (active)"],
  ["CSC1=NC2(CCCCC2)C2=C(CCCC2)N1", "33% (active)"],
  ["Cn1c(CN2CCN(c3ccccc3NS(C)(=O)=O)CC2)nc2ccccc21", "inactive"],
  ["COc1cc(CNC2CCCC2)cc(Cl)c1OCc1ccc(F)cc1", "37.5% (active)"],
  ["Fc1ccc(NC(=S)NCCc2ccccn2)cc1", "inactive"],
  ["O=C(Nc1ccc([N+](=O)[O-])cn1)C1CCCCC1", "inactive"],
  ["Cn1ncc(C#N)c1/N=C/N(Cc1ccccc1)Cc1ccccc1", "inactive"],
  ["COc1ccc(CNc2ccc(Cl)cc2)cc1Cn1ccnc1", "inactive"],
  ["Cc1ccc(Nc2cc(C)nc3c(C)cccc23)cc1", "35.3% (active)"],
  ["CCN1CCN(c2ccc(S(=O)(=O)N3CCCCC3)cc2NC(=O)COc2cc(C)ccc2Cl)CC1", "inactive"],
  ["CCN(CC)CCCNC(=S)N1CCN(c2nc3ccccc3n2CC)CC1", "inactive"],
  ["Oc1ccc(-c2[nH]ncc2-c2ccc(Br)cc2)c(O)c1", "inactive"],
  ["Cc1c(CCOC(=O)c2ccc([N+](=O)[O-])cc2)sc[n+]1CC(=O)c1ccccc1", "42.9% (active)"],
  ["O=C(c1ccccc1)C1CCc2occc2C1=O (centres undefined)", "inactive"],
  ["COc1cc(CNC2CCCC2)c(Br)cc1OC1CCCC1", "inactive"],
  ["Cc1ccc(Sc2ccc(CO)cc2[N+](=O)[O-])cc1", "7.78% (active)"],
  ["CC12CN3CC(C)(CN(C1)C3c1ccc(Cl)cc1Cl)C2O (centres undefined)", "inactive"],
  ["COc1ccc(CNCc2cn(-c3cccc(F)c3)nc2-c2ccc(C)o2)cc1", "inactive"],
  ["Cc1cccn2cc(-c3c[nH]c4ccccc34)nc12", "35.1% (active)"],
  ["CN(CCc1ccccn1)C(=O)CC1C(=O)NCCN1Cc1ccc(-c2ccccc2)cc1 (centres undefined)", "inactive"],
  ["Cc1cc(C)nc(NNS(=O)(=O)c2ccc(F)c(Cl)c2)n1", "inactive"],
  ["CCn1c(=O)c(C(=O)NNC(=O)c2ccccc2F)c(O)c2ccccc21", "inactive"],
  ["CCOCCCn1c(=S)[nH]c2cc(C(=O)NCCCN(CC)CC)ccc2c1=O", "inactive"],
  ["Cc1ccc(Cn2c(=N)c(C(=O)NCC3CCCO3)cc3c(=O)n4ccccc4nc32)cc1 (centres undefined)", "inactive"],
  ["Cc1sc2nc(SCC(N)=O)n(C)c(=O)c2c1C", "inactive"],
  ["CC1(C)CC(NC(=O)c2cc(COc3cccc(C(F)(F)F)c3)on2)CCO1 (centres undefined)", "25.2% (active)"],
  ["COc1ccc(C(CCNCc2ccc(N(C)C)cc2)c2ccccc2)cc1 (centres undefined)", "inactive"],
  ["O=C(NCc1ccccc1)C1=C[C@@H](C2CCCCC2)C[C@@H](OCc2ccc(CO)cc2)O1", "inactive"],
  ["O=C(O)C1C2C=CC(C2)C1C(=O)N1CCN(C/C=C/c2ccccc2)CC1 (centres undefined)", "inactive"],
  ["CC(C)(C)c1cc2cccnc2n1Cc1ccccc1", "15.4% (active)"],
  ["COc1cccc(C(=O)Oc2ccc(/C=N/Nc3ccc(C(=O)O)cc3)cc2OC)c1", "inactive"],
  ["CCc1cc(=O)oc2c(CNCc3ccccc3F)c(O)c(Cl)cc12", "inactive"],
  ["CCN(CCNC(=O)C1CCCN(c2ncnc3c2nc2n3CCCCC2)C1)Cc1ccccc1 (centres undefined)", "inactive"],
  ["COc1ccc(N(C(=O)c2snc(C(N)=O)c2N)C(C(=O)NC2CCCCC2)c2ccc(C)o2)c(OC)c1 (centres undefined)", "inactive"],
  ["CCCCCCCCCCCCOC(=O)C[N+](C)(C)C", "37.5% (active)"],
  ["CCOCCCNCc1cc(Br)ccc1OCc1ccccc1", "16.2% (active)"],
  ["Cc1ccc(Cl)cc1N1CCN(Cc2nc3c(c(=O)[nH]c(=O)n3C)n2Cc2ccccc2F)CC1", "inactive"]
]}
